These data points were gathered from the supplement of paper PMC12338614.

B1: library; numbered along this chain (parent)
chain: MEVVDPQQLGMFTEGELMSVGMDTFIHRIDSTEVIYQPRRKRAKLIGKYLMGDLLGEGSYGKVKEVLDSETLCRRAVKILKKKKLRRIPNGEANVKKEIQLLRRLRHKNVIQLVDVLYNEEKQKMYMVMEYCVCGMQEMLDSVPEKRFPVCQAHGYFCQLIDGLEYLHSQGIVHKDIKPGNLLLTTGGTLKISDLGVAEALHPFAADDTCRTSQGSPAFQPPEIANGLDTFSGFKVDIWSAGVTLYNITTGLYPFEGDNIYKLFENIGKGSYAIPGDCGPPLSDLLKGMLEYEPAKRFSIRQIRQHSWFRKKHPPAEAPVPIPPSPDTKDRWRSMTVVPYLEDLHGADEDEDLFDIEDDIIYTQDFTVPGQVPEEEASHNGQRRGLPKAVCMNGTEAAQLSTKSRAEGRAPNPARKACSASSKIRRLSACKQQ

# Variants of: B1
# assay_summary: STK11 functional score (HeLa growth suppression), rescaled enrichment; synonymous median = 1, nonsense median = 0 (normalised score)
# particulars: with HeLa; variant type: missense
For each record, check the reported STK11 functional score: if it is below 1 write True, else write False.

# variant_key, cat
measured = [
    ("Q214W", "True"),
    ("A241T", "True"),
    ("D229E", "False"),
    ("Y118Q", "False"),
    ("I224N", "False"),
    ("A389R", "False"),
    ("V128H", "True"),
    ("P89W", "False"),
    ("E342V", "False"),
    ("T185P", "True"),
    ("R409D", "False"),
    ("P369F", "False"),
    ("P254H", "False"),
    ("P280E", "False"),
    ("P179F", "True"),
    ("Y166V", "False"),
    ("C151V", "False"),
    ("E317P", "False"),
    ("G251P", "True"),
    ("T244M", "False"),
    ("Q302P", "True"),
    ("A377W", "True"),
    ("K82T", "False"),
    ("Y292D", "False"),
    ("N412T", "False"),
    ("C210H", "False"),
    ("G257S", "False"),
    ("R40W", "False"),
    ("S419H", "False"),
    ("P411V", "False"),
    ("H168W", "True"),
    ("G188L", "True"),
    ("L245I", "True"),
    ("R426L", "False"),
    ("K62N", "False"),
    ("T250W", "False"),
    ("A389P", "False"),
    ("T367V", "False"),
    ("A200W", "True"),
    ("P315D", "False"),
    ("G408N", "False"),
    ("P6S", "False"),
    ("E349V", "False"),
    ("E351P", "False"),
    ("G135R", "False"),
]
